biological target: Syk catalytic domain (aa 356-635 with a C-terminal His-tag) (Homo sapiens, UniProt P43405); construct: His-tag (C); made in house; experiment: In vitro Syk kinase activity measured by trFRET, Syk catalytic domain; format: biochemical; conditions: Syk catalytic domain (aa 356-635), trFRET, 0.001 mM ATP
propertyMeasured: IC50

Examples with their reported IC50 follow.
CC(C)(O)c1ccc(-c2nc(-c3cccnc3C#N)n3c2cnc2[nH]ccc23)cc1 [D.3.1]; < 100 nM
Cc1ccc2c(c1)c(-c1cc3c(ncc4cnn(C)c43)[nH]1)cn2C; < 100 nM
CCc1c[nH]c2ncc3c(-c4ccc(CO)cc4)nn(C)c3c12; 100 to 1000 nM

Enquiry: Give the measured IC50 for Cn1ncc2cnc3[nH]c(-c4ccc(C(C)(C)O)cc4)cc3c21
Return: < 100 nM

Enquiry: Give the measured IC50 for COCCc1nc(-c2ccc(OC)cc2)c2cnc3[nH]ccc3n12
Return: 100 to 1000 nM

Enquiry: Give the measured IC50 for CS(=O)(=O)c1ccc(-n2c(=O)n(C3CCCCC3)c3c4cc[nH]c4ncc32)cc1
Return: > 10000 nM

Enquiry: Give the measured IC50 for CCc1c[nH]c2ncc3c(-c4cccnc4)nn(C)c3c12
Return: 1000 to 10000 nM

Enquiry: Give the measured IC50 for COc1ccc2c(c1)c(-c1cc3c(ncc4cnc([C@@H]5CC[C@H](NC(C)=O)C5)n43)[nH]1)cn2C
Return: < 100 nM

Enquiry: Give the measured IC50 for Cn1ncc2cnc3[nH]c(-c4cccc(C(=O)N5CCCC5)c4)cc3c21
Return: 100 to 1000 nM

Enquiry: Give the measured IC50 for CC(=O)NCc1cccc(-c2cc3c(ncc4cnn(C)c43)[nH]2)c1
Return: < 100 nM

Enquiry: Give the measured IC50 for Cn1cc(-c2cc3c(ncc4cnn(C)c43)[nH]2)c2nccnc21
Return: 100 to 1000 nM

Source of measurements: patent US20140349970A1
